Recorded values, source patent US9422286B2.

Would you mind telling me the reported [HL1]/[L1]^− (pKa4) of each entry?
# assay.details: UV-vis pH titration, acidity constant determination
# Type: physicochemical
# condition.details: 50 μM, 0.1 M NaCl, room temperature, methanol-water (methanol ≤20% v:v); assigned to the phenol group
One number for each entry.

Example entries begin here.
1) COc1cc(-c2nc3ccccc3s2)cc(CN2Cc3cccc(n3)CNCc3cccc(n3)C2)c1O [L4] :: 10.14
2) COc1cc(-c2nc3ccccc3s2)cc(CN2Cc3cccc(n3)CN(C)Cc3cccc(n3)C2)c1O [L5] :: 9.60
3) COc1cc(-c2nc3ccccc3s2)cc(CN2Cc3cccc(n3)CN(Cc3cc(-c4nc5ccccc5s4)cc(OC)c3O)Cc3cccc(n3)C2)c1O [L7] :: 10.65
4) COc1cc(-c2nc3ccccc3s2)cc(CN2Cc3cccc(n3)CN(CC(=O)O)Cc3cccc(n3)C2)c1O [L6] :: 9.98

Continue with the molecule presented below.
Enquiry: Quick check: [HL1]/[L1]^− (pKa4) of COc1cc(-c2nc3ccccc3s2)cc(CN2CCN(C)CCN(C)CC2)c1O [L3] ?
Return: 9.34

----------
Would you mind telling me the reported [H4L1]^3+/[H3L1]^2+ (pKa1) of each entry?
# assay.details: UV-vis pH titration, acidity constant determination
# Assay type: physicochemical
# condition.details: 50 μM, 0.1 M NaCl, room temperature, methanol-water (methanol ≤20% v:v)
Answers are plain numbers.

1. COc1cc(-c2nc3ccccc3s2)cc(CN2Cc3cccc(n3)CN(CC(=O)O)Cc3cccc(n3)C2)c1O :: 4.57
2. COc1cc(-c2nc3ccccc3s2)cc(CN2Cc3cccc(n3)CN(C)Cc3cccc(n3)C2)c1O :: 4.80
3. COc1cc(-c2nc3ccccc3s2)cc(CN2Cc3cccc(n3)CNCc3cccc(n3)C2)c1O :: 5.14
4. COc1cc(-c2nc3ccccc3s2)cc(CN2CCN(C)CCN(C)CC2)c1O :: 3.78

Continue with the molecule presented below.
Enquiry: Quick check: [H4L1]^3+/[H3L1]^2+ (pKa1) of COc1cc(-c2nc3ccccc3s2)cc(CN2Cc3cccc(n3)CN(Cc3cc(-c4nc5ccccc5s4)cc(OC)c3O)Cc3cccc(n3)C2)c1O ?
Return: 4.35

----------
# tested.on: ThT-bound Aβ40 fibrils (Homo sapiens)
# Sequence (P05067 672-711 limits assumed): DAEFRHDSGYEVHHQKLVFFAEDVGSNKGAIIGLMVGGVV
# assay.details: ThT fluorescence competition assay
# condition.details: [Aβ]=2 μM, [ThT]=1 μM
reported.property: pKi
Give bare numbers, as −log10 of the molar value.

1. COc1cc(-c2nc3ccccc3s2)cc(CN2Cc3cccc(n3)CN(CC(=O)O)Cc3cccc(n3)C2)c1O :: 6.49

Enquiry: Quick check: pKi of COc1ccc(/C=C/c2ccc(O)cc2)cc1OC ?
Return: 7.18

----------
# assay.details: UV-vis pH titration, acidity constant determination
# Type: physicochemical
# condition.details: 50 μM, 0.1 M NaCl, room temperature, methanol-water (methanol ≤20% v:v)
Would you mind telling me the reported [H2L1]^+/[HL1] (pKa3) of each entry?
Give bare numbers.

Example entries begin here.
1. COc1cc(-c2nc3ccccc3s2)cc(CN2CCN(C)CCN(C)CC2)c1O :: 8.27
2. COc1cc(-c2nc3ccccc3s2)cc(CN2Cc3cccc(n3)CN(CC(=O)O)Cc3cccc(n3)C2)c1O :: 8.71
3. COc1cc(-c2nc3ccccc3s2)cc(CN2Cc3cccc(n3)CN(C)Cc3cccc(n3)C2)c1O :: 8.02
4. COc1cc(-c2nc3ccccc3s2)cc(CN2Cc3cccc(n3)CNCc3cccc(n3)C2)c1O :: 9.34

Continue with the compound presented below.
Enquiry: Quick check: [H2L1]^+/[HL1] (pKa3) of COc1cc(-c2nc3ccccc3s2)cc(CN2Cc3cccc(n3)CN(Cc3cc(-c4nc5ccccc5s4)cc(OC)c3O)Cc3cccc(n3)C2)c1O ?
Return: 8.22

----------
# assay.details: pH-spectrophotometric titration, stability constants of Cu^2+ complexes
# Format: physicochemical
# condition.details: Cu^2+ complex, equimolar Cu(ClO4)2, room temperature
Would you mind telling me the reported Stability constant, M^2+ + L^− = [ML]^+ of each entry?
Give bare numbers.

Example entries begin here.
1) COc1cc(-c2nc3ccccc3s2)cc(CN2Cc3cccc(n3)CN(CC(=O)O)Cc3cccc(n3)C2)c1O :: 30.098
2) COc1cc(-c2nc3ccccc3s2)cc(CN2Cc3cccc(n3)CN(C)Cc3cccc(n3)C2)c1O :: 27.224

Enquiry: Quick check: Stability constant, M^2+ + L^− = [ML]^+ of COc1cc(-c2nc3ccccc3s2)cc(CN2Cc3cccc(n3)CNCc3cccc(n3)C2)c1O ?
Return: 27.093

----------
# assay.details: UV-vis pH titration, acidity constant determination
# Format: physicochemical
# condition.details: 50 μM, 0.1 M NaCl, room temperature, methanol-water (methanol ≤20% v:v)
Would you mind telling me the reported [H3L1]^+2/[H2L1]^+ (pKa2) of each entry?
Answers are plain numbers.

1) COc1cc(-c2nc3ccccc3s2)cc(CN2CCN(C)CCN(C)CC2)c1O :: 6.35

Could you report [H3L1]^+2/[H2L1]^+ (pKa2) for every entry in the following list?
1. COc1cc(-c2nc3ccccc3s2)cc(CN2Cc3cccc(n3)CN(CC(=O)O)Cc3cccc(n3)C2)c1O
2. COc1cc(-c2nc3ccccc3s2)cc(CN2Cc3cccc(n3)CN(C)Cc3cccc(n3)C2)c1O
3. COc1cc(-c2nc3ccccc3s2)cc(CN2Cc3cccc(n3)CNCc3cccc(n3)C2)c1O
4. COc1cc(-c2nc3ccccc3s2)cc(CN2Cc3cccc(n3)CN(Cc3cc(-c4nc5ccccc5s4)cc(OC)c3O)Cc3cccc(n3)C2)c1O

Return:
1. 6.93
2. 5.61
3. 7.84
4. 7.39
